# targetOfAssay: AaORCO+AaOR8 receptors (Aedes aegypti, UniProt A0A1S4FVR6)
# Sequence (Q178U6 whole entry): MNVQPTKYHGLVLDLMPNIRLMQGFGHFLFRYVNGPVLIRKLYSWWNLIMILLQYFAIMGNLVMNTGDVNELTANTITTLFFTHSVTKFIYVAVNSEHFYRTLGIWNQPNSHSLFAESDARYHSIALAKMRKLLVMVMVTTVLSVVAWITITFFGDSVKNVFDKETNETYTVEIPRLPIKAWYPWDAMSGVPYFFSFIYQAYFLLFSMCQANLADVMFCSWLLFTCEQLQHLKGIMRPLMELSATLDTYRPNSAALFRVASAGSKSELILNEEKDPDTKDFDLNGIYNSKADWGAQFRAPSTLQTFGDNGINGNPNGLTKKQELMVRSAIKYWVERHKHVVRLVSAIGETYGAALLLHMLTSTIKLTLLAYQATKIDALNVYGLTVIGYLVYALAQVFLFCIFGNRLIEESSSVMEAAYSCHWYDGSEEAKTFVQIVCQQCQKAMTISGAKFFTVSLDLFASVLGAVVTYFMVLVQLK
# Sequence (A0A1S4FVR6 entry or part of it): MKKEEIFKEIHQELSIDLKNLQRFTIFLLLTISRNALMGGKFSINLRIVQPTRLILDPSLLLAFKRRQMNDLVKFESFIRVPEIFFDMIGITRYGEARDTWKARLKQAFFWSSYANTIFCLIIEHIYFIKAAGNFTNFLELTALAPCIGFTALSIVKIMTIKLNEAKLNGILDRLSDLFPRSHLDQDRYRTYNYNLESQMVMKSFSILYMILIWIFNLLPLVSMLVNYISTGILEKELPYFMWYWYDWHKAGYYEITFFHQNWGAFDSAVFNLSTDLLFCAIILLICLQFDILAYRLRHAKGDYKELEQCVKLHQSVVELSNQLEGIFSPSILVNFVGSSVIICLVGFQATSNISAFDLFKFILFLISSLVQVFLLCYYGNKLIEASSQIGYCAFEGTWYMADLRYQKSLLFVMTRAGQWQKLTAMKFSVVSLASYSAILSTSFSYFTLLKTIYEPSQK
# experimentSummary: Automatic planar patch-clamp electrophysiology in U2OS cells co-transduced with AaORCO and AaOR8
# Type: cell-based
# cond: presence of 10 μM VUAA1, read-out: EC50, activation of AaORCO+AaOR8 channel currents in the presence of VUAA1 (left-shift)
metric: pEC50
Numbers only, as −log10 of the molar value.

Req: Requested read-out: pEC50. Entry: C=CC(O)CCCCC (stereo not shown)
Resp: 7.00
